assay_target: Phosphorylase b kinase gamma catalytic chain, liver/testis isoform (Homo sapiens) (UniProt P15735)
Sequence (P15735 whole entry, canonical isoform): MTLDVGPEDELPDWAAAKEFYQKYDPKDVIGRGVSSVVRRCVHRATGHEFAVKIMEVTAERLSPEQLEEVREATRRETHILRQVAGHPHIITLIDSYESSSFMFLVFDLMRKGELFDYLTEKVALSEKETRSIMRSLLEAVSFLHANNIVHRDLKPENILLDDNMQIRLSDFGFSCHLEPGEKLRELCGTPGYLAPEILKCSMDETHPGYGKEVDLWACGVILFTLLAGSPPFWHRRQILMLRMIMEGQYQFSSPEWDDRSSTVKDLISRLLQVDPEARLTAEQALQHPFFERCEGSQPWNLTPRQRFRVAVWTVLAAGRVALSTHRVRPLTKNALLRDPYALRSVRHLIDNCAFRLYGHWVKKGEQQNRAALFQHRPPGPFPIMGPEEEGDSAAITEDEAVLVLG
assay_setup: at 10 µM
parameter: residual activity (%)
Report the figure in % without appending any unit label.

- smiles_string: "Cc1nc(-c2ccccc2)c(-c2ccncc2)o1"
  unit_annotation: "%"
  residual activity: 95
- smiles_string: "O=C(Nc1cccc(Nc2cc(Nc3cccc(C(F)(F)F)c3)ncn2)c1)C1CC1"
  unit_annotation: "%"
  residual activity: 98
- smiles_string: "O=C1NC(=O)c2cc(Nc3ccc(F)cc3)c(Nc3ccc(F)cc3)cc21"
  unit_annotation: "%"
  residual activity: 86
- smiles_string: "CNc1cc2c(Nc3cccc(Br)c3)ncnc2cn1"
  unit_annotation: "%"
  residual activity: 107
- smiles_string: "CC#CC(=O)Nc1cc2c(Nc3ccc(F)c(Cl)c3)ncnc2cn1"
  unit_annotation: "%"
  residual activity: 105
- smiles_string: "COc1ccc(CNc2nc(N(CCO)CCO)nc3c2ncn3C(C)C)cc1"
  unit_annotation: "%"
  residual activity: 88

Q: Given CC[n+]1c(/C=C/N(C)c2ccccc2)n(-c2ccccc2)c2ccc(-c3nc4ccccc4s3)cc21 , state its recorded residual activity.
Result: 63

Q: What would you report for CN(C)CCCn1cc(C2=C(c3c[nH]c4ccccc34)C(=O)NC2=O)c2ccccc21 ?
Result: 63

Q: What would you report for COc1cccc(-c2cc(=O)c3ccccc3o2)c1N ?
Result: 117

Q: What would you report for CCC(=O)Nc1ccc2ncnc(Nc3cccc(Br)c3)c2c1 ?
Result: 108

---

Collected residual activity values appear next to each entry.
assay_target: Misshapen-like kinase 1 (Homo sapiens) (UniProt Q8N4C8)
Sequence (Q8N4C8 whole entry, looked up): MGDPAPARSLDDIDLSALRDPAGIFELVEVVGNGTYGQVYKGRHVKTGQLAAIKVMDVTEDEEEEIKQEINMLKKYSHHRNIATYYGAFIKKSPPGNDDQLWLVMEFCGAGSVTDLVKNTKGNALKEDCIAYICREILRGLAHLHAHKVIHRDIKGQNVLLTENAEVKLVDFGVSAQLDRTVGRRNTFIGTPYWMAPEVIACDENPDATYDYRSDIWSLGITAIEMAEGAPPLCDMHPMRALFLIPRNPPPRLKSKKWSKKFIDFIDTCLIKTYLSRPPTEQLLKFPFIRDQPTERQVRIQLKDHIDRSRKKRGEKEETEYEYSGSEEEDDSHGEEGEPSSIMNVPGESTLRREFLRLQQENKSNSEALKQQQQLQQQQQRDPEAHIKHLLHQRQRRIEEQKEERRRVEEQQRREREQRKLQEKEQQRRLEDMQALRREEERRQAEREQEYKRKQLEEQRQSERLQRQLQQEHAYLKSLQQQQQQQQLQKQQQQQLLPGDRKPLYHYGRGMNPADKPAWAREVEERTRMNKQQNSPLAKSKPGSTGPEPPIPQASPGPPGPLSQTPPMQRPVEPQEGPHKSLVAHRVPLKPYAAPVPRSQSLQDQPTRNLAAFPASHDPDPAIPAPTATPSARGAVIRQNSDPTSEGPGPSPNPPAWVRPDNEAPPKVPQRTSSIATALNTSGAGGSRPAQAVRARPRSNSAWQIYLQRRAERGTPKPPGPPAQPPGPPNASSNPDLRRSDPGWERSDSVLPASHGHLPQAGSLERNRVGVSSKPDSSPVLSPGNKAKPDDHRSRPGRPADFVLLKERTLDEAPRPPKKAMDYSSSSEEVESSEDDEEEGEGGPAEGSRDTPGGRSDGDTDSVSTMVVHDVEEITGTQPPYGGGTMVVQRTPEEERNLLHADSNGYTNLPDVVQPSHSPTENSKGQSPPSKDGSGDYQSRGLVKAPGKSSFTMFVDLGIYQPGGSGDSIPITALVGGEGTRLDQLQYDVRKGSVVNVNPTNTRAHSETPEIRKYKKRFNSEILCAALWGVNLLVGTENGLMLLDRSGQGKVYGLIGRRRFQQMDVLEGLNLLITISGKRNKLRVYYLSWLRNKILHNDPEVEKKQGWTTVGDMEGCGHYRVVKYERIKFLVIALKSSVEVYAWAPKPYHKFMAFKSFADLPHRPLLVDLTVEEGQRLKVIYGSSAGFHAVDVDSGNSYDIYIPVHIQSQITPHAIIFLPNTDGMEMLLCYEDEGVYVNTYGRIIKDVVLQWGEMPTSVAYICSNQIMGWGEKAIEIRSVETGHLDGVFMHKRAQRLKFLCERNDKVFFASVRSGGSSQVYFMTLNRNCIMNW
assay_setup: at 1 µM
Report the figure in % without appending any unit label.

- smiles_string: "Cc1nc2cc3nc(-c4cccs4)cnc3cc2n1C"
  assay_target: "Misshapen-like kinase 1 (Homo sapiens) (UniProt Q8N4C8)"
  unit_annotation: "%"
  residual activity: 112
- smiles_string: "CO[C@H]1[C@@H](OC)C[C@H](C)[C@@H](OC)C2=CC(=O)C=C(NC(=O)/C(C)=C/C=C/[C@H](OC)[C@@H](OC(N)=O)/C(C)=C/[C@@H]1C)C2=O"
  assay_target: "Misshapen-like kinase 1 (Homo sapiens) (UniProt Q8N4C8)"
  unit_annotation: "%"
  residual activity: 95
- smiles_string: "CC(=O)O/N=C1\\C(=C2\\C(=O)Nc3cc(Br)ccc32)Nc2ccccc21"
  assay_target: "Misshapen-like kinase 1 (Homo sapiens) (UniProt Q8N4C8)"
  unit_annotation: "%"
  residual activity: 103
- smiles_string: "c1ccc2c(-c3ccncc3)c[nH]c2c1"
  assay_target: "Misshapen-like kinase 1 (Homo sapiens) (UniProt Q8N4C8)"
  unit_annotation: "%"
  residual activity: 85

Next, consider the following compound.
Q: Given Cc1cc(Nc2nc(-c3ccccc3)nc3ccccc23)n[nH]1 , state its recorded residual activity.
Result: 61

---

assay_target: Protein kinase C zeta type (Homo sapiens)
assay_setup: at 10 µM
parameter: residual activity (%)
Report the figure in % without appending any unit label.

Some solved entries appear below for comparison.
- smiles_string: "CC#CC(=O)Nc1cc2c(Nc3ccc(F)c(Cl)c3)ncnc2cn1"
  unit_annotation: "%"
  val: 103
- smiles_string: "c1ccc(-c2n[nH]cc2-c2ccnc3ccccc23)nc1"
  unit_annotation: "%"
  val: 123
- smiles_string: "O=C1NC(=O)/C(=C\\c2ccc3nccnc3c2)S1"
  unit_annotation: "%"
  val: 108
- smiles_string: "CCN(CC)CCCCN1c2ccccc2Oc2ccc(Cl)cc21"
  unit_annotation: "%"
  val: 112
- smiles_string: "Ic1cccc(CSc2nnc(-c3ccncc3)o2)c1"
  unit_annotation: "%"
  val: 98

Q: Given O=[N+]([O-])c1ccc(-c2nc(-c3ccc(F)cc3)c(-c3ccncc3)[nH]2)cc1 , state its recorded residual activity.
Result: 103

Q: What would you report for Cc1cncc2cccc(S(=O)(=O)N3CCCN(C(=O)CN)C[C@H]3C)c12 ?
Result: 50

---

assay_target: Vascular endothelial growth factor receptor 2 (Homo sapiens) (UniProt P35968)
Sequence (P35968 whole entry): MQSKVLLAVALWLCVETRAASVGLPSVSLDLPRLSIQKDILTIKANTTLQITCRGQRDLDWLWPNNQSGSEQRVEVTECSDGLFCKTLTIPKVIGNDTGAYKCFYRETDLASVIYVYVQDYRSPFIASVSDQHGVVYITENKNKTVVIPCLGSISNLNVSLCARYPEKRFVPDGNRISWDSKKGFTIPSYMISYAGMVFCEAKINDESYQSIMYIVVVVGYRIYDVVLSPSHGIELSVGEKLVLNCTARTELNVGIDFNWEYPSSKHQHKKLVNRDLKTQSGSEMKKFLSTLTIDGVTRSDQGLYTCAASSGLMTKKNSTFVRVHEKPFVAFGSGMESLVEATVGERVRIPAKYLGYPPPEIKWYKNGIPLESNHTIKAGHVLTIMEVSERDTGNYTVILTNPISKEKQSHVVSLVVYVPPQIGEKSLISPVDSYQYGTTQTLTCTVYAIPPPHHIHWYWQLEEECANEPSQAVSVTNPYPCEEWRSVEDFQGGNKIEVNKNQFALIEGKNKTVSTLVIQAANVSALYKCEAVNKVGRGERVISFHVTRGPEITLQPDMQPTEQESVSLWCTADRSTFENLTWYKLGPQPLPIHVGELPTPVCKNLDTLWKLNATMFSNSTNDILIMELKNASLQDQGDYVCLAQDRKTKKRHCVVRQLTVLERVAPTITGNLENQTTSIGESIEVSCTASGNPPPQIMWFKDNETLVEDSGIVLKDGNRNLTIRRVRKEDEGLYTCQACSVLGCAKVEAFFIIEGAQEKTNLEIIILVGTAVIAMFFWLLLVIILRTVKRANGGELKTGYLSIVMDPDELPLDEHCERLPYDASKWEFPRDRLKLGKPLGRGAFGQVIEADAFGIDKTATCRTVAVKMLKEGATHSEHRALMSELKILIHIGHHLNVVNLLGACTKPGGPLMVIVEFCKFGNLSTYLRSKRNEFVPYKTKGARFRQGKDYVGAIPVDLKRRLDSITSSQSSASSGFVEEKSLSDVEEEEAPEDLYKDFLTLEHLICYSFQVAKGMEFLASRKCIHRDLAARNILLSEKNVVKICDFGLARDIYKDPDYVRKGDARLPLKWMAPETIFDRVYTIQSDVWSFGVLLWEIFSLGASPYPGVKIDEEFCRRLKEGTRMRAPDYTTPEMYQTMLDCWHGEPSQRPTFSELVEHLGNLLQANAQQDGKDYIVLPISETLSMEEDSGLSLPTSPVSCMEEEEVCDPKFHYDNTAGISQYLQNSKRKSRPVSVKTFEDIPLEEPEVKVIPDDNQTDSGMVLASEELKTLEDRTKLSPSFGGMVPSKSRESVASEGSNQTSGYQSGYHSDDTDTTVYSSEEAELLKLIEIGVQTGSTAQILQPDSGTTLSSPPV
assay_setup: at 10 µM
Threshold check on residual activity: strictly below 80% is Criterion met; on or above 80% is Criterion not met.

Recorded results for 5 molecules are shown here.
- smiles_string: "O=C1NC(=O)c2cc(Nc3ccc(F)cc3)c(Nc3ccc(F)cc3)cc21"
  qualitative_label: "Criterion met"
- smiles_string: "Oc1ccc(Nc2nc(-c3ccc(Cl)cc3)cs2)cc1"
  qualitative_label: "Criterion not met"
- smiles_string: "Nc1ccc2ncnc(NCCc3ccc(Oc4ccccc4)cc3)c2c1"
  qualitative_label: "Criterion met"
- smiles_string: "O=C1NC(=O)/C(=C/c2ccc3c(c2)OC(F)(F)O3)S1"
  qualitative_label: "Criterion not met"
- smiles_string: "Nc1n[nH]c2nnc(-c3c(-c4ccccc4)nn4ccccc34)cc12"
  qualitative_label: "Criterion met"

Continue with the molecule presented below.
Q: Consider O=C(Nc1cccc(Nc2cc(Nc3cccc(C(F)(F)F)c3)ncn2)c1)C1CC1 . Does its residual activity lie strictly below 80%?
Result: Criterion met

---

assay_target: Serine/threonine-protein kinase PLK1 (Homo sapiens)
assay_setup: at 1 µM
Collected residual activity values appear next to each entry.
Report the figure in % without appending any unit label.

Some solved entries appear below for comparison.
- smiles_string: "CNc1cc2c(Nc3cccc(Br)c3)ncnc2cn1"
  assay_target: "Serine/threonine-protein kinase PLK1 (Homo sapiens)"
  residual activity / %: 99
- smiles_string: "O=C1NC(=O)c2c1c1c3ccccc3[nH]c1c1[nH]c3cc(Br)ccc3c21"
  assay_target: "Serine/threonine-protein kinase PLK1 (Homo sapiens)"
  residual activity / %: 90
- smiles_string: "Cc1nc2cc3nc(-c4cccs4)cnc3cc2n1C"
  assay_target: "Serine/threonine-protein kinase PLK1 (Homo sapiens)"
  residual activity / %: 118
- smiles_string: "O=C(Nc1cccc(Nc2cc(Nc3cccc(C(F)(F)F)c3)ncn2)c1)C1CC1"
  assay_target: "Serine/threonine-protein kinase PLK1 (Homo sapiens)"
  residual activity / %: 99
- smiles_string: "O=c1cc(-c2cccc3c2Sc2ccccc2S3)oc(N2CCOCC2)c1"
  assay_target: "Serine/threonine-protein kinase PLK1 (Homo sapiens)"
  residual activity / %: 95
- smiles_string: "O=C1Nc2ccc(Br)cc2/C1=C\\c1cc2c([nH]1)CCCC2"
  assay_target: "Serine/threonine-protein kinase PLK1 (Homo sapiens)"
  residual activity / %: 82
- smiles_string: "Cc1cc(Nc2nc(-c3ccccc3)nc3ccccc23)n[nH]1"
  assay_target: "Serine/threonine-protein kinase PLK1 (Homo sapiens)"
  residual activity / %: 73
- smiles_string: "O=C(O)c1ccc2c3c1cccc3c(=O)n1c3ccccc3nc21"
  assay_target: "Serine/threonine-protein kinase PLK1 (Homo sapiens)"
  residual activity / %: 92

Q: Given C[C@@H](N)[C@H]1CC[C@H](C(=O)Nc2ccncc2)CC1 , state its recorded residual activity.
Result: 107

Q: What would you report for COc1cccc(-c2cc(=O)c3ccccc3o2)c1N ?
Result: 81

Q: What would you report for CN(C)c1ccc(/C=C2\C(=O)Nc3ccccc32)cc1 ?
Result: 88

Q: What would you report for Cn1cnc2cc3c(Nc4cccc(Br)c4)ncnc3cc21 ?
Result: 105

Q: What would you report for COc1cc2ncnc(Nc3ccc(NC(=O)c4ccccc4)cc3)c2cc1OC ?
Result: 105

Q: What would you report for NC(=O)c1ccc2[nH]c(-c3ccc(Oc4ccc(Cl)cc4)cc3)nc2c1 ?
Result: 75

Q: What would you report for COc1ccc(CNc2nc(N(CCO)CCO)nc3c2ncn3C(C)C)cc1 ?
Result: 69

Q: What would you report for CC[n+]1c(/C=C/N(C)c2ccccc2)n(-c2ccccc2)c2ccc(-c3nc4ccccc4s3)cc21 ?
Result: 123

---

assay_target: Fibroblast growth factor receptor 1 (Homo sapiens) (UniProt P11362)
Sequence (P11362 22-822 limits assumed): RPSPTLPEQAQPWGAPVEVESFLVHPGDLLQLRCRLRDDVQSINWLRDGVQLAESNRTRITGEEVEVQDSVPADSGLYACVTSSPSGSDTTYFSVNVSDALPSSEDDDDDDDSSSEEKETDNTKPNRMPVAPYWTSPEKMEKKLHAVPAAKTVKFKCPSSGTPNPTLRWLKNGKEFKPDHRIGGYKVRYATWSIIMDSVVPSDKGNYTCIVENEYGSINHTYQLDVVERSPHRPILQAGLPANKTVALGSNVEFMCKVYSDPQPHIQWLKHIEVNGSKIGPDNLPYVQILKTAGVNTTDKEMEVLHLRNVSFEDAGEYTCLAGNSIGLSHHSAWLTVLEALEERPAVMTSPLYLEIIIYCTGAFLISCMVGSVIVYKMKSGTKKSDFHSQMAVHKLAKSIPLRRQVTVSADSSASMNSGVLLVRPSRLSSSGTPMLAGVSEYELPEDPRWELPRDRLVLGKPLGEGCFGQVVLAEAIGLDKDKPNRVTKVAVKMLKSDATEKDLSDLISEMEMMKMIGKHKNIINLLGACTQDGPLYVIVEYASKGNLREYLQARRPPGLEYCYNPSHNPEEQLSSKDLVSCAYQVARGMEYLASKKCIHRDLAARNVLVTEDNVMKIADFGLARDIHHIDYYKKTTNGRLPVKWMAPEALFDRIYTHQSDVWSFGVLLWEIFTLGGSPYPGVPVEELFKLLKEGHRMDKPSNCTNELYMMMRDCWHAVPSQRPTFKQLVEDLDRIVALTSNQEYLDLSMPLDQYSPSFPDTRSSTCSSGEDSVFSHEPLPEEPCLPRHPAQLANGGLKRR
assay_setup: at 1 µM
parameter: residual activity (%)
Report the figure in % without appending any unit label.

Some solved entries appear below for comparison.
- smiles_string: "Nc1n[nH]c2nnc(-c3c(-c4ccccc4)nn4ccccc34)cc12"
  unit_annotation: "%"
  residual activity: 110
- smiles_string: "O=C1c2ccccc2-[n+]2ccc3c([nH]c4ccccc43)c21"
  unit_annotation: "%"
  residual activity: 100
- smiles_string: "Cc1cncc2cccc(S(=O)(=O)N3CCCN(C(=O)CN)C[C@H]3C)c12"
  unit_annotation: "%"
  residual activity: 76
- smiles_string: "CN(C)c1ccc(/C=C2\\C(=O)Nc3ccccc32)cc1"
  unit_annotation: "%"
  residual activity: 61

Q: Given N#C/C(=C(\N)Sc1ccc(N)cc1)c1ccccc1C(F)(F)F , state its recorded residual activity.
Result: 112

Q: What would you report for N#CCCc1ccc2c(c1)-c1[nH]c3ccc([N+](=O)[O-])cc3c1CC(=O)N2 ?
Result: 47

Q: What would you report for O=C1NC(=O)/C(=C/c2ccc3c(c2)OC(F)(F)O3)S1 ?
Result: 116

Q: What would you report for O=c1cc(-c2cccc3c2Sc2ccccc2S3)oc(N2CCOCC2)c1 ?
Result: 120

Q: What would you report for O=c1c2ccccc2[nH]c(=S)n1CCN1CCC(=C(c2ccc(F)cc2)c2ccc(F)cc2)CC1 ?
Result: 83

Q: What would you report for O=C1NC(=O)c2c1c1c3ccccc3[nH]c1c1[nH]c3cc(Br)ccc3c21 ?
Result: 90

Q: What would you report for CO[C@H]1[C@@H](OC)C[C@H](C)[C@@H](OC)C2=CC(=O)C=C(NC(=O)/C(C)=C/C=C/[C@H](OC)[C@@H](OC(N)=O)/C(C)=C/[C@@H]1C)C2=O ?
Result: 82

Q: What would you report for O=C(O)c1ccc2c3c1cccc3c(=O)n1c3ccccc3nc21 ?
Result: 94

Q: What would you report for O=C1Nc2cc(Br)ccc2/C1=C1/Nc2ccccc2/C1=N\O ?
Result: 3

Q: What would you report for CCOc1cc2ncnc(Nc3cccc(Br)c3)c2cc1OCC ?
Result: 66

Q: What would you report for CO[C@@H]1[C@H](N(C)C(=O)c2ccccc2)C[C@H]2O[C@]1(C)n1c3ccccc3c3c4c(c5c6ccccc6n2c5c31)C(=O)NC4 ?
Result: 5
